Hey, just so you know, these numbers are from the supplement of paper PMC10307832.

- Test system: NCI-H2126
- Protocol Details: relative viability (nuclei count vs DMSO), 5 days (fraction); higher = more cells survive
- Details: first compound 0.2 µM
Provide the recorded relative viability for the entries that follow.
One number for each entry.

For each listed entry, give its relative viability.
1. Cc1csc(=NC2CCCCC2)n1/N=C/c1ccc(O)c(O)c1O [MIM1] + C[C@]1(O)C[C@@H](c2nc(-c3ccc4ccc(-c5ccccc5)nc4c3)c3c(N)nccn32)C1 [Linsitinib] (partner 1 µM)
2. CN1CCN(CCOc2cc(OC3CCOCC3)c3c(Nc4c(Cl)ccc5c4OCO5)ncnc3c2)CC1 [Saracatinib] + Nc1ncn([C@H]2C[C@H](O)[C@@H](CO)O2)c(=O)n1 [Decitabine] (partner 2 µM)

1: 0.715; 2: 0.567

----------
- Test system: NCI-H727
- Protocol Details: relative viability (nuclei count vs DMSO), 5 days (fraction); higher = more cells survive
- Details: first compound 8 µM
Provide the recorded relative viability for the entries that follow.
Answers are plain numbers.

// query relative viability value for entry Nc1cccc2c1CN(C1CCC(=O)NC1=O)C2=O (stereo not given) [Lenalidomide] + CC(=O)Nc1cccc(-n2c(=O)n(C3CC3)c(=O)c3c(Nc4ccc(I)cc4F)n(C)c(=O)c(C)c32)c1 [Trametinib] (partner 0.02 µM)
0.376

// query relative viability value for entry Nc1cccc2c1CN(C1CCC(=O)NC1=O)C2=O (stereo not given) [Lenalidomide] + Cc1nc(Nc2ncc(C(=O)Nc3c(C)cccc3Cl)s2)cc(N2CCN(CCO)CC2)n1 [Dasatinib] (partner 0.075 µM)
0.384

// query relative viability value for entry Nc1cccc2c1CN(C1CCC(=O)NC1=O)C2=O (stereo not given) [Lenalidomide] + NC(=O)Nc1cc(-c2cccc(F)c2)sc1C(=O)N[C@H]1CCCNC1 [AZD7762] (partner 0.2 µM)
0.709

// query relative viability value for entry Nc1cccc2c1CN(C1CCC(=O)NC1=O)C2=O (stereo not given) [Lenalidomide] + COc1cccc2cc(-c3nc([C@H]4CC[C@H](C(=O)O)CC4)n4ncnc(N)c34)[nH]c12 [OSI-027] (partner 0.5 µM)
0.562

More entries:
// query relative viability value for entry Nc1cccc2c1CN(C1CCC(=O)NC1=O)C2=O (stereo not given) [Lenalidomide] + O=C(c1cc(Cc2n[nH]c(=O)c3ccccc23)ccc1F)N1CCN(C(=O)C2CC2)CC1 [Olaparib] (partner 8 µM)
0.7

----------
- System: HCC-15
- Protocol Details: relative viability (nuclei count vs DMSO), 5 days (fraction); higher = more cells survive
- Details: first compound 0.001 µM
Reported Property: relative viability
Give bare numbers.

# count of solved cases: 5
// query relative viability value for entry Cc1cn(-c2cc(NC(=O)c3ccc(C)c(Nc4nccc(-c5cccnc5)n4)c3)cc(C(F)(F)F)c2)cn1 [Nilotinib] + CS(=O)(=O)CCNCc1ccc(-c2ccc3ncnc(Nc4ccc(OCc5cccc(F)c5)c(Cl)c4)c3c2)o1 [Lapatinib] (partner 2 µM)
0.835

// query relative viability value for entry Cc1cn(-c2cc(NC(=O)c3ccc(C)c(Nc4nccc(-c5cccnc5)n4)c3)cc(C(F)(F)F)c2)cn1 [Nilotinib] + CC(C)C[C@H](NC(=O)[C@H](Cc1ccccc1)NC(=O)c1cnccn1)B(O)O [Bortezomib] (partner 0.002 µM)
0.92

// query relative viability value for entry Cc1cn(-c2cc(NC(=O)c3ccc(C)c(Nc4nccc(-c5cccnc5)n4)c3)cc(C(F)(F)F)c2)cn1 [Nilotinib] + N=C(N)NC(=N)NCCc1ccccc1 [Phenformin] (partner 250 µM)
0.436

// query relative viability value for entry Cc1cn(-c2cc(NC(=O)c3ccc(C)c(Nc4nccc(-c5cccnc5)n4)c3)cc(C(F)(F)F)c2)cn1 [Nilotinib] + C[C@@H](Oc1cc(-c2cnn(C3CCNCC3)c2)cnc1N)c1c(Cl)ccc(F)c1Cl [Crizotinib] (partner 1 µM)
0.723

// query relative viability value for entry Cc1cn(-c2cc(NC(=O)c3ccc(C)c(Nc4nccc(-c5cccnc5)n4)c3)cc(C(F)(F)F)c2)cn1 [Nilotinib] + Cc1nc(NC(=O)N2CCC[C@H]2C(N)=O)sc1-c1ccnc(C(C)(C)C(F)(F)F)c1 [Alpelisib] (partner 2 µM)
0.824

With those in mind, consider the next molecule.
// query relative viability value for entry Cc1cn(-c2cc(NC(=O)c3ccc(C)c(Nc4nccc(-c5cccnc5)n4)c3)cc(C(F)(F)F)c2)cn1 [Nilotinib] + Cc1nc(Nc2ncc(C(=O)Nc3c(C)cccc3Cl)s2)cc(N2CCN(CCO)CC2)n1 [Dasatinib] (partner 0.075 µM)
0.607

----------
- Tested on: IA-LM
- Protocol Details: relative viability (nuclei count vs DMSO), 5 days (fraction); higher = more cells survive
- Details: first compound 0.01 µM
Provide the recorded relative viability for the entries that follow.
Answers are plain numbers.

# count of solved cases: 3
// query relative viability value for entry Cc1cn(-c2cc(NC(=O)c3ccc(C)c(Nc4nccc(-c5cccnc5)n4)c3)cc(C(F)(F)F)c2)cn1 [Nilotinib] + C[C@@H](Oc1cc(-c2cnn(C3CCNCC3)c2)cnc1N)c1c(Cl)ccc(F)c1Cl [Crizotinib] (partner 1 µM)
0.835

// query relative viability value for entry Cc1cn(-c2cc(NC(=O)c3ccc(C)c(Nc4nccc(-c5cccnc5)n4)c3)cc(C(F)(F)F)c2)cn1 [Nilotinib] + O=C(c1cc(Cc2n[nH]c(=O)c3ccccc23)ccc1F)N1CCN(C(=O)C2CC2)CC1 [Olaparib] (partner 8 µM)
0.758

// query relative viability value for entry Cc1cn(-c2cc(NC(=O)c3ccc(C)c(Nc4nccc(-c5cccnc5)n4)c3)cc(C(F)(F)F)c2)cn1 [Nilotinib] + C[C@]1(O)C[C@@H](c2nc(-c3ccc4ccc(-c5ccccc5)nc4c3)c3c(N)nccn32)C1 [Linsitinib] (partner 1 µM)
0.634

With those in mind, consider the next molecule.
// query relative viability value for entry Cc1cn(-c2cc(NC(=O)c3ccc(C)c(Nc4nccc(-c5cccnc5)n4)c3)cc(C(F)(F)F)c2)cn1 [Nilotinib] + CS(=O)(=O)CCNCc1ccc(-c2ccc3ncnc(Nc4ccc(OCc5cccc(F)c5)c(Cl)c4)c3c2)o1 [Lapatinib] (partner 2 µM)
0.755

----------
- Test system: EMC-BAC-2
- Protocol Details: relative viability (nuclei count vs DMSO), 5 days (fraction); higher = more cells survive
- Details: first compound 0.253 µM
Reported Property: relative viability
Answers are plain numbers.

# count of solved cases: 2
// query relative viability value for entry Nc1cccc2c1CN(C1CCC(=O)NC1=O)C2=O (stereo not drawn) [Lenalidomide] + NC(=O)Nc1cc(-c2cccc(F)c2)sc1C(=O)N[C@H]1CCCNC1 [AZD7762] (partner 0.2 µM)
1.12

// query relative viability value for entry Nc1cccc2c1CN(C1CCC(=O)NC1=O)C2=O (stereo not drawn) [Lenalidomide] + Nc1nc2[nH]cc(CCc3ccc(C(=O)N[C@@H](CCC(=O)O)C(=O)O)cc3)c2c(=O)[nH]1 [Pemetrexed] (partner 0.2 µM)
0.437

With those in mind, consider the next molecule.
// query relative viability value for entry Nc1cccc2c1CN(C1CCC(=O)NC1=O)C2=O (stereo not drawn) [Lenalidomide] + CCNC(=O)c1noc(-c2cc(C(C)C)c(O)cc2O)c1-c1ccc(CN2CCOCC2)cc1 [Luminespib] (partner 0.01 µM)
1.22

----------
- Test system: NCI-H1975
- Protocol Details: relative viability (nuclei count vs DMSO), 5 days (fraction); higher = more cells survive
- Details: first compound 0.6325 µM
Reported Property: relative viability
Give bare numbers.

// query relative viability value for entry CN1CCN(CCOc2cc(OC3CCOCC3)c3c(Nc4c(Cl)ccc5c4OCO5)ncnc3c2)CC1 [Saracatinib] + Cc1nc(Nc2ncc(C(=O)Nc3c(C)cccc3Cl)s2)cc(N2CCN(CCO)CC2)n1 [Dasatinib] (partner 0.075 µM)
0.372

For each listed entry, give its relative viability.
1. CN1CCN(CCOc2cc(OC3CCOCC3)c3c(Nc4c(Cl)ccc5c4OCO5)ncnc3c2)CC1 [Saracatinib] + N=C(N)NC(=N)NCCc1ccccc1 [Phenformin] (partner 250 µM)
2. Cc1csc(=NC2CCCCC2)n1/N=C/c1ccc(O)c(O)c1O [MIM1] + Cc1nc(Nc2ncc(C(=O)Nc3c(C)cccc3Cl)s2)cc(N2CCN(CCO)CC2)n1 [Dasatinib] (partner 0.075 µM)
3. Cc1csc(=NC2CCCCC2)n1/N=C/c1ccc(O)c(O)c1O [MIM1] + Nc1ncn([C@H]2C[C@H](O)[C@@H](CO)O2)c(=O)n1 [Decitabine] (partner 2 µM)
4. CN1CCN(CCOc2cc(OC3CCOCC3)c3c(Nc4c(Cl)ccc5c4OCO5)ncnc3c2)CC1 [Saracatinib] + CC(=O)Nc1cccc(-n2c(=O)n(C3CC3)c(=O)c3c(Nc4ccc(I)cc4F)n(C)c(=O)c(C)c32)c1 [Trametinib] (partner 0.02 µM)

0.387
0.377
0.385
0.391

For each listed entry, give its relative viability.
1. Cc1csc(=NC2CCCCC2)n1/N=C/c1ccc(O)c(O)c1O [MIM1] + CC(=O)Nc1cccc(-n2c(=O)n(C3CC3)c(=O)c3c(Nc4ccc(I)cc4F)n(C)c(=O)c(C)c32)c1 [Trametinib] (partner 0.02 µM)
2. Cc1csc(=NC2CCCCC2)n1/N=C/c1ccc(O)c(O)c1O [MIM1] + O=C(CCCCCCC(=O)Nc1ccccc1)NO [Vorinostat] (partner 1 µM)
3. CN1CCN(CCOc2cc(OC3CCOCC3)c3c(Nc4c(Cl)ccc5c4OCO5)ncnc3c2)CC1 [Saracatinib] + O=C(c1cc(Cc2n[nH]c(=O)c3ccccc23)ccc1F)N1CCN(C(=O)C2CC2)CC1 [Olaparib] (partner 8 µM)

1: 0.372; 2: 0.708; 3: 0.804

// query relative viability value for entry Cc1csc(=NC2CCCCC2)n1/N=C/c1ccc(O)c(O)c1O [MIM1] + C[C@@H](Oc1cc(-c2cnn(C3CCNCC3)c2)cnc1N)c1c(Cl)ccc(F)c1Cl [Crizotinib] (partner 1 µM)
1.1
